assay: folding stability dG unfold from trypsin proteolysis; higher = more stable
For each entry below, report its folding stability dG unfold value.

Here's what some known entries look like.
SAGGSSESKTVTAPDGRVLEFTKSLDPTSSNSRYTLTVYAPESGEPLREAEFSSEEEAEKYIAEGLGSAGGS [r8_450_JUSTAS]; -0.0113 kcal/mol
SAGGSAGGSNPRYRIVLPISREQLEELGLTPEQVAEAIREAFPSLSPDTRFYFPEDGNLVVVGSAGGSAGGS [r12_50_TrMRF]; 1.58 kcal/mol
SAGGSAGGIKAPDGQEYHIILFPITIPMEQKVERPMPDGDPRPETRTVSIKIPIWFAIPPGQKISAGGSAGG [r6_526_TrROS]; 1.14 kcal/mol
SAGGGKKYRVTLELTLPDGTKLTLEFEFEVVPPAVPKPVVTTSLDDIAEFDPETGTAIDKKNKKPIPLPSAG [r5_807_TrMRF]; 1.5 kcal/mol

# batch size: 3; output folding stability dG unfold per entry
1. SAGGSAGGSKMRERTITFPNAKITIWYHPDGNVRMEVMNPGNGKPKREIWMKPGDIEEILKKFSAGGSAGGS [r20_129_TrROS]
2. SAGGSAGGSAGGNFKITEPVEEYPNPNGNPIKVFTFKNPDDGPEFTFIFMPNGNWQFIPSAGGSAGGSAGGS [r10_1123_TrROS]
3. SAGGSAGGSAPLEELLDVIRSVPANTRAEFPIIVETETGYVPYIARVENPEPGGALIEIEKASAGGSAGGSA [r18_493_TrMRF]

Result:
["1.62 kcal/mol", "0.674 kcal/mol", "-0.258 kcal/mol"]
